- Test: Pharmacokinetic study in female mice (plasma, liver, bone)
- Type: in vivo, female C57/BL6 mice
- Conditions Used: female, C57/BL6, mouse, bone, iv, 3 mg/kg; IV 3 mg/kg
Measurement Name: Cmax (ng/g)
Quick reminder: number only, in ng/g, skip the unit.

## Input Need Cmax of "O=C1Nc2ccc(-c3cc(C(F)(F)F)cc(C(F)(F)F)c3)cc2C(=O)N2CCN(C(=O)COc3ccc(OC(F)(F)F)cc3I)C[C@@H]12" , thanks.
## Output 1070

---

- Test: Pharmacokinetic study in female mice (plasma, liver, bone)
- Assay type: in vivo, female C57/BL6 mice
- Conditions Used: female, C57/BL6, mouse, plasma, iv, 3 mg/kg, plasma; IV 3 mg/kg; read-out: AUCInf
Measurement Name: AUC(0-inf) (ng·h/mL)
Quick reminder: number only, in ng·h/mL, skip the unit.

## Input Need AUC(0-inf) of "O=C1Nc2ccc(-c3cc(C(F)(F)F)cc(C(F)(F)F)c3)cc2C(=O)N2CCN(C(=O)COc3ccc(OC(F)(F)F)cc3I)C[C@@H]12" , thanks.
## Output 3200

---

- Test: Pharmacokinetic study in female mice (plasma, liver, bone)
- Type: in vivo, female C57/BL6 mice
- Conditions Used: female, C57/BL6, mouse, plasma, iv, 3 mg/kg, plasma; IV 3 mg/kg; read-out: C0
Measurement Name: C0 (ng/mL)
Quick reminder: number only, in ng/mL, skip the unit.

## Input Need C0 of "O=C1Nc2ccc(-c3cc(C(F)(F)F)cc(C(F)(F)F)c3)cc2C(=O)N2CCN(C(=O)COc3ccc(OC(F)(F)F)cc3I)C[C@@H]12" , thanks.
## Output 3590

---

- Test: Pharmacokinetic study in female mice (plasma, liver, bone)
- Type: in vivo, female C57/BL6 mice
- Conditions Used: female, C57/BL6, mouse, liver/plasma, po, 10 mg/kg, PO 10 mg/kg, one administration; read-out: AUClast Ratio (Liver/Plasma)
Measurement Name: Kp
Lab note: jot the number down without any unit.

## Input Need Kp of "O=C1Nc2ccc(-c3cc(C(F)(F)F)cc(C(F)(F)F)c3)cc2C(=O)N2CCN(C(=O)COc3ccc(OC(F)(F)F)cc3I)C[C@@H]12" , thanks.
## Output 9.23

---

- Test: Pharmacokinetic study in female mice (plasma, liver, bone)
- Format: in vivo, female C57/BL6 mice
- Conditions Used: female, C57/BL6, mouse, bone/plasma, po, 10 mg/kg, PO 10 mg/kg, one administration; read-out: Cmax Ratio (Bone/Plasma)
Measurement Name: Kp
Lab note: jot the number down without any unit.

## Input Need Kp of "O=C1Nc2ccc(-c3cc(C(F)(F)F)cc(C(F)(F)F)c3)cc2C(=O)N2CCN(C(=O)COc3ccc(OC(F)(F)F)cc3I)C[C@@H]12" , thanks.
## Output 0.475

---

- Test: Pharmacokinetic study in female mice (plasma, liver, bone)
- Assay type: in vivo, female C57/BL6 mice
- Conditions Used: female, C57/BL6, mouse, bone/plasma, po, 10 mg/kg, PO (QD*3) 10 mg/kg; read-out: Cmax Ratio (Bone/Plasma)
Measurement Name: Kp
Lab note: jot the number down without any unit.

## Input Need Kp of "O=C1Nc2ccc(-c3cc(C(F)(F)F)cc(C(F)(F)F)c3)cc2C(=O)N2CCN(C(=O)COc3ccc(OC(F)(F)F)cc3I)C[C@@H]12" , thanks.
## Output 0.766
